Values compiled from paper PMC10786891.

Reported pKd values follow for various binders
# TARGET_OR_TEST_SYSTEM: T1, EsCas13d, nuclease-dead (Eubacterium siraeum, UniProt B0MS50, R295A;H300A;R849A;H854A)
# T1 sequence: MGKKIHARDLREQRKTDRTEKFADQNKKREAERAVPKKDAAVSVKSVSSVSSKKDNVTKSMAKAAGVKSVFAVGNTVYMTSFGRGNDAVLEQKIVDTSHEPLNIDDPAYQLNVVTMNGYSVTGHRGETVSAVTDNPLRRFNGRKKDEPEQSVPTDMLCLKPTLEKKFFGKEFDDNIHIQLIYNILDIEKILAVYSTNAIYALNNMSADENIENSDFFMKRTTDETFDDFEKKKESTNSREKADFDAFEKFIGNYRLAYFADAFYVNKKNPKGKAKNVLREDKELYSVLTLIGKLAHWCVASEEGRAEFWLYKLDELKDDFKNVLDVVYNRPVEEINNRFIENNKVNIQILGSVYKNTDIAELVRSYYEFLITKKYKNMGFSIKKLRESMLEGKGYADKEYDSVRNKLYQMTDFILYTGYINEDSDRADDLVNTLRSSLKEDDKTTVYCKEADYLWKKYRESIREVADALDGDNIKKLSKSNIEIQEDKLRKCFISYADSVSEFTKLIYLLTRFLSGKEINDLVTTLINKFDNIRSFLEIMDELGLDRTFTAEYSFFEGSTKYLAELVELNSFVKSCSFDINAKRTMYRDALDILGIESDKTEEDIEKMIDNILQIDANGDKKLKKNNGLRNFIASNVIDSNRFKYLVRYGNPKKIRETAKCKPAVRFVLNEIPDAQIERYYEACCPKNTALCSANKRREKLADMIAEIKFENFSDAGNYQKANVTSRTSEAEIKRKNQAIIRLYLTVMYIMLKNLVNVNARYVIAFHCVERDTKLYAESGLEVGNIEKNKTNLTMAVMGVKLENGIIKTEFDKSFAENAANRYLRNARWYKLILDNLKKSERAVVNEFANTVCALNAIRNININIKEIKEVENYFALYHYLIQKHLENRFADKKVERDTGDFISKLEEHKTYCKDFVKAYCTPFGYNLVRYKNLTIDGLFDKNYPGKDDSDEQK
# PROTOCOL_SUMMARY: crRNA (strand 1, pre-loaded); Mg2+; 40 mM Tris-HCl pH 7.5, 150 mM NaCl, 6 mM MgCl2, 1 mM DTT, 0.1% Tween-20, 0.2 mg/ml BSA; 25 C; 10 min per concentration, then washed
# MEASUREMENT_CONDITIONS: tags: His6-TwinStrep-SUMO cleaved; N-terminal SNAP kept (SNAP-Surface 488); label: 3' end held by stalled T7 RNA polymerase
The quantity pKd is defined as the negative base-10 logarithm of the molar concentration.

Example results:
target 2 MT 5'PFS AUG 3'PFS ACU (mixed) RNA 1: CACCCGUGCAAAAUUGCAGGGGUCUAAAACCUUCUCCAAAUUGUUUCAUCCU RNA 2: GGGAAUGGAUCCACAUCUACGAAUUCAUGAGGAUGAAACAAUUUGGAGAAGACUAGAUCGGAAGAGCACACGU | 7.94
target 3 del1,del4 (mixed) RNA 1: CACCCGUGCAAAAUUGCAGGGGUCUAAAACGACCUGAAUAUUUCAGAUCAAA RNA 2: GGGAAUGGAUCCACAUCUACGAAUUCGUUUUUGAUCUGAAAUAUUCAGUUGCAGAUCGGAAGAGCACACGU | 7.74
target 1 complement block 1-7 (mixed) RNA 1: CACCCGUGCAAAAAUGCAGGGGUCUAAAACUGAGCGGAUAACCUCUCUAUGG RNA 2: GGGAAUGGAUCCACAUCUACGAAUUCGUACCAUAGAGAGGUUAUGGCGAGUCCGAGAUCGGAAGAGCACACGU | 7.62

Now consider the entry below.
Lookup result for target 1 C6U,U8C (mixed) RNA 1: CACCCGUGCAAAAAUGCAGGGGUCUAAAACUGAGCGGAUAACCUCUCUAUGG RNA 2: GGGAAUGGAUCCACAUCUACGAAUUCGUACCAUAGAGAGGUUACCUGCUCACCGAGAUCGGAAGAGCACACGU ; measured pKd: 7.81
